// reported inhibition at 2.5 h, 10 µM per item
Measured on: hERG (Homo sapiens, UniProt Q12809)
Construct: purchased Invitrogen PV5365
Sequence (Q12809 whole entry): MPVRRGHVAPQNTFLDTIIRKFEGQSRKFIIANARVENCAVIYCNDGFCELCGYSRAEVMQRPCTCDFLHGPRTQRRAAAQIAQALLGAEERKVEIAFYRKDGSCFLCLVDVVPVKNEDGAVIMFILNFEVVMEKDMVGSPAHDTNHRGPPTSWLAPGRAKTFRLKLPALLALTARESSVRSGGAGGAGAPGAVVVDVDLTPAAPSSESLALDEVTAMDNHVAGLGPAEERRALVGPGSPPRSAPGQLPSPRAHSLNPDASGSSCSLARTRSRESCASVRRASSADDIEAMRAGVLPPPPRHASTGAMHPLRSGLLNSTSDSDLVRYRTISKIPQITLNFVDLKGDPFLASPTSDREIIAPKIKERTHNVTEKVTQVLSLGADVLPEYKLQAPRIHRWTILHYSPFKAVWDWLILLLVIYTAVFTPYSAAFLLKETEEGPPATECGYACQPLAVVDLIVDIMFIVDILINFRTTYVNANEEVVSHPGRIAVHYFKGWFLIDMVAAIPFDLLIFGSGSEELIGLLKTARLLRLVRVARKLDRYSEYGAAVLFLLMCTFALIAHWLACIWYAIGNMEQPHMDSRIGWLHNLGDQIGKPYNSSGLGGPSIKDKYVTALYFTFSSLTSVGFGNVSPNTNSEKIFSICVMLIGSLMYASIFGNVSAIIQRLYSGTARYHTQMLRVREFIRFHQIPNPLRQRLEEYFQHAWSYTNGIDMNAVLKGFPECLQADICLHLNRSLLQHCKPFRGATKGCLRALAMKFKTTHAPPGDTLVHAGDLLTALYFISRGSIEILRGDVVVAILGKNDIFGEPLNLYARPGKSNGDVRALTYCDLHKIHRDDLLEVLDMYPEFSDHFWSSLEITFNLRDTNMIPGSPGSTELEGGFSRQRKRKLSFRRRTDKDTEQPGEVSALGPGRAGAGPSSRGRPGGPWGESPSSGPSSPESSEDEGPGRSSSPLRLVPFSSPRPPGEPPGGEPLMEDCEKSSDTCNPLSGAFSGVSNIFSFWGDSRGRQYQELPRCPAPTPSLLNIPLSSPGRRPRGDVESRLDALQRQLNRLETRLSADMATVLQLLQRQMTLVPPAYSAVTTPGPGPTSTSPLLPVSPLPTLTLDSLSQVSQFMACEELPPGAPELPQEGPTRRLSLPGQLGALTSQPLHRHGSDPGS
Method description: hERG inhibition test (Predictor hERG Fluorescence Polarization assay kit)
Format: binding
Measurement parameters: probe kit Tracer (fluorescent hERG ligand), hERG % inhibition at 10 uM, relative to E-4031 and solvent control
Experimental: To measure the hERG (Human ether-a-go-go-related gene) channel inhibition rate of the compound according to the present invention, the following test was performed using a Predictor hERG Fluorescence Polarization assay kit (Invitrogen, PV5365). Specifically, a test substance was dissolved in DMSO to prepare a 50 mM solution. […]
Measured quantity: inhibition at 2.5 h, 10 µM (%)

Compound	Measured quantity	Test value
N#Cc1ccc(COc2cccc(-c3ccc(Cc4nc5ccc(C(=O)O)cc5n4Cc4ccco4)c(F)c3)c2)c(F)c1	inhibition at 2.5 h, 10 µM	0.52
O=C(O)c1ccc2nc(Cc3ccc(-c4cccc(OCc5ccc(Cl)cc5F)n4)cc3)n(CC3CCCO3)c2c1 (stereo not drawn)	inhibition at 2.5 h, 10 µM	-7.54
O=C(O)c1ccc2nc(Cc3ccc(-c4cccc(OCc5ccc(C(F)(F)F)cc5)n4)c(F)c3)n(CC3CCCO3)c2c1 (stereo not drawn)	inhibition at 2.5 h, 10 µM	6.11
O=C(O)c1ccc2nc(Cc3ccc(-c4cccc(OCc5ccc(Cl)cc5F)n4)cc3)n(Cc3ccco3)c2c1	inhibition at 2.5 h, 10 µM	-2.74
COc1ccc(COc2cccc(-c3ccc(Cc4nc5ccc(C(=O)O)cc5n4C[C@@H]4CCO4)cc3F)n2)cc1	inhibition at 2.5 h, 10 µM	-5.75
Cc1cc(-c2cccc(OCc3ccc(Cl)cc3F)n2)ccc1Cc1nc2ccc(C(=O)O)cc2n1C[C@@H]1CCO1	inhibition at 2.5 h, 10 µM	28.3
O=C(O)c1ccc2nc(Cc3ccc(-c4cccc(OCc5ccc(Cl)cc5F)n4)cc3F)n(CC3CCCO3)c2c1 (stereo not drawn)	inhibition at 2.5 h, 10 µM	-9.12
O=C(O)c1ccc2nc(Cc3ccc(-c4cccc(OCc5ccc(Cl)cc5F)c4)cc3F)n(CCF)c2c1	inhibition at 2.5 h, 10 µM	0.83
O=C(O)c1ccc2nc(Cc3ccc(-c4cccc(OCc5ccc(Cl)cc5F)n4)c(F)c3)n(C[C@@H]3CCO3)c2c1	inhibition at 2.5 h, 10 µM	-2.04
N#Cc1ccc(COc2cccc(-c3ccn(Cc4nc5ccc(C(=O)O)cc5n4CC4CCCO4)c(=O)c3)c2)c(F)c1 (stereo not drawn)	inhibition at 2.5 h, 10 µM	2.7
COCCn1c(Cc2ccc(-c3cccc(OCc4ccc(Cl)cc4F)n3)cc2)nc2ccc(C(=O)O)cc21	inhibition at 2.5 h, 10 µM	-11.9
N#Cc1ccc(COc2cccc(-c3ccc(Cc4nc5ccc(C(=O)O)cc5n4C[C@H]4CCCO4)cc3F)c2)c(F)c1	inhibition at 2.5 h, 10 µM	-17.1
O=C(O)c1ccc2nc(Cc3ccc(-c4cccc(OCc5nc6ccccc6s5)n4)c(F)c3)n(C[C@@H]3CCO3)c2c1	inhibition at 2.5 h, 10 µM	-7.11
N#Cc1ccc(COc2cccc(-c3ccc(Cc4nc5ccc(C(=O)O)cc5n4CC4CCCO4)c(F)c3)n2)c(F)c1 (stereo not drawn)	inhibition at 2.5 h, 10 µM	1.67
O=C(O)c1ccc2nc(Cc3ccc(-c4ccc(F)c(OCc5ccc(Cl)cc5F)c4)cc3F)n(CC3CCCO3)c2c1 (stereo not drawn)	inhibition at 2.5 h, 10 µM	-38.2

---

Recorded inhibition at 2.5 h, 10 µM for the following compounds
Measured on: hERG (Homo sapiens)
Construct: purchased Invitrogen PV5365
Method description: hERG inhibition test (Predictor hERG Fluorescence Polarization assay kit)
Type: binding
Measurement parameters: probe kit Tracer (fluorescent hERG ligand), hERG % inhibition at 10 uM, relative to E-4031 and solvent control
Measured quantity: inhibition at 2.5 h, 10 µM (%)

Compound	Measured on	Reading unit	Test value
N#Cc1ccc(COc2cccc(-c3ccc(Cc4nc5ccc(C(=O)O)cc5n4CC4CCCO4)c(F)c3)n2)cc1 (centres unmarked) [Example 87]	hERG (Homo sapiens)	%	32.9
O=C(O)c1ccc2nc(Cn3ccc(-c4cccc(OCc5ccc(Cl)cc5F)n4)cc3=O)n(C[C@@H]3CCO3)c2c1 [Example 110]	hERG (Homo sapiens)	%	7.61
N#Cc1ccc(COc2cccc(-c3ccc(Cc4nc5ccc(C(=O)O)cc5n4CCF)cc3F)n2)c(F)c1 [Example 58]	hERG (Homo sapiens)	%	2.81
N#Cc1ccc(COc2cccc(-c3ccc(Cc4nc5ccc(C(=O)O)cc5n4CC4CCCO4)c(F)c3F)n2)c(F)c1 (centres unmarked) [Example 62]	hERG (Homo sapiens)	%	-7.49
N#Cc1ccc(COc2cccc(-c3ccc(Cc4nc5ccc(C(=O)O)cc5n4C[C@@H]4CCO4)c(F)c3F)n2)c(F)c1 [Example 113]	hERG (Homo sapiens)	%	-4.94

Cited source for all entries: patent US12421205B2
